- measurementProtocol: qHTS for Inhibitors of the Functional Ribonucleoprotein Complex (vRNP) of Lymphocytic Choriomeningitis Arenaviruses (LCMV): Viability assay - alamar blue signal for LCMV Primary Screen (AID 1347085); also: nearly all actives have a fitted effect of over 80% in size
- runParameters: alamar blue viability counter-screen, LCMV vRNP screen cells; series mostly up to 57.5 µM
Records with an inconclusive call do not appear. Activity calls are given as the source filed them. Calls follow the shape of the full dose curve; tested in HEK293 reporter line.
Pick from t = active, f = inactive when you respond.

A selection of reference data follows.
CN(C)CCc1c[nH]c2ccc(CS(=O)(=O)N3CCCC3)cc12: f
Cc1ccc2c(n1)Oc1ccc(C(C)C(=O)OCC(=O)N(C)C)cc1C2 (stereo not drawn): f

Request: What is the recorded call for this compound in the test? CC1NCCOC1c1ccccc1 (stereo not drawn)
Result: f

---

- runParameters: Ebola virus entry cell assay, ratio channel
Activity calls are given as the source filed them.
Pick from active, inactive when you respond.

CC(=O)Oc1ccccc1C(=O)Nc1ncc([N+](=O)[O-])s1: inactive
CC(=O)O[C@@]12CO[C@@H]1C[C@H](O)[C@@]1(C)C(=O)[C@H](O)C3=C(C)[C@@H](OC(=O)[C@H](O)[C@@H](NC(=O)OC(C)(C)C)c4ccccc4)C[C@@](O)([C@@H](OC(=O)c4ccccc4)[C@H]21)C3(C)C: inactive
O=C(O)COCCN1CCN(C(c2ccccc2)c2ccc(Cl)cc2)CC1 (stereo not drawn): inactive

Request: What is the recorded call for this compound in the test? C[C@H]1[C@H](NC(=O)/C(=N/OC(C)(C)C(=O)O)c2csc(N)n2)C(=O)N1S(=O)(=O)O (stereo in doubt)
Result: inactive

Request: What is the recorded call for this compound in the test? Nc1nc2c(ncn2COCCO)c(=O)[nH]1
Result: inactive

Request: What is the recorded call for this compound in the test? C[C@@H](O[C@H]1OCCN(Cc2n[nH]c(=O)[nH]2)[C@H]1c1ccc(F)cc1)c1cc(C(F)(F)F)cc(C(F)(F)F)c1
Result: inactive

Request: What is the recorded call for this compound in the test? CN(C)CCOC(c1ccc(Cl)cc1)c1ccccn1 (stereo not drawn)
Result: inactive

Request: What is the recorded call for this compound in the test? CC(=O)[C@]1(O)Cc2c(O)c3c(c(O)c2[C@@H](O[C@H]2C[C@H](N)[C@H](O)[C@H](C)O2)C1)C(=O)c1ccccc1C3=O
Result: inactive

Request: What is the recorded call for this compound in the test? COc1c(C)c2c(c(O)c1C/C=C(\C)CCC(=O)O)C(=O)OC2
Result: inactive

---

- runParameters: Ebola virus entry assay, blue channel (ratio component)
Results with a measured potency or affinity are listed apart. Activity calls are given as the source filed them.
assayEndpoint: outcome

O=[N+]([O-])c1cc([As](=O)(O)O)ccc1O: inactive
OC(Cn1cncn1)(Cn1cncn1)c1ccc(F)cc1F: inactive
CCC1=C[C@@H]2CN(C1)Cc1c([nH]c3ccccc13)[C@@](C(=O)OC)(c1cc3c(cc1OC)N(C)[C@H]1[C@@](O)(C(=O)OC)[C@H](OC(C)=O)[C@]4(CC)C=CCN5CC[C@]31[C@@H]54)C2: inactive
CN1CC[C@H](c2c(O)cc(O)c3c(=O)cc(-c4ccccc4Cl)oc23)[C@H](O)C1: inactive
CC(=O)N[C@@H](CS)C(=O)O: inactive

Request: Tell me outcome reported for CCCCc1ncc(/C=C(\Cc2cccs2)C(=O)O)n1Cc1ccc(C(=O)O)cc1
Result: inactive

Request: Tell me outcome reported for CCC(C)(C)C(=O)O[C@H]1C[C@@H](C)C=C2C=C[C@H](C)[C@H](CC[C@@H]3C[C@@H](O)CC(=O)O3)[C@H]21
Result: inactive

Request: Tell me outcome reported for COc1ccc(Cc2nccc3cc(OC)c(OC)cc23)cc1OC
Result: inactive

Request: Tell me outcome reported for CCCN(CCC)CCc1cccc2c1CC(=O)N2
Result: inactive

Request: Tell me outcome reported for CN(C)[C@@H]1C(=O)C(C(N)=O)=C(O)[C@@]2(O)C(=O)C3=C(O)c4c(O)ccc(Cl)c4[C@@H](O)[C@H]3C[C@@H]12
Result: inactive

Request: Tell me outcome reported for C[C@@H]1C[C@H]2[C@@H]3CCC4=CC(=O)C=C[C@]4(C)[C@@]3(F)[C@@H](O)C[C@]2(C)[C@@]1(O)C(=O)CO
Result: inactive

---

- measurementProtocol: Quantitative High-Throughput drug screen in 47 multiple myeloma cell lines against the NCATS MIPE library collection: Karpas620_DSMZ cell viability assay (AID 1918959); also: nearly all actives have a fitted effect of over 30% in size; also: potency is read from the fitted curve at half-maximal effect
- runParameters: Karpas620 myeloma viability, CellTiter-Glo ATP luminescence, 48 h; series mostly up to 45.8 µM
- Excerpt: PI: Beverly A. Mock Ph.D. Laboratory of Cancer Biology and Genetics, Center for Cancer Research, National Cancer Institute, National Institute of Health, Bethesda, Maryland […] 5; Detector; 425V; Luminescence; Viewlux PerkinElmer. […] 1. […] Briefly, the corresponding myeloma cell lines were screened in 1,536-well plates with 500 cells, 5-uL per well for inhibition of cell viability (assessed by measuring ATP levels with CellTiterGlo). […]
Results filed as inconclusive are left out. Activity calls are given as the source filed them. The call rests on the fitted dose curve; in most records, active means well fitted cell-killing curve with a large enough effect; inconclusive means small, poorly fitted or top-dose-only effect, or effect the other way; inactive means no such curve, though single readings can be large or run the other way.
assayEndpoint: Potency

Here's what some known entries look like.
Cn1c(CCCC(=O)O)nc2cc(N(CCCl)CCCl)ccc21: inactive
CCCC(C)(COC(N)=O)COC(=O)NC(C)C (stereo not given): inactive
Fc1ccc(C(OCCN2CCN(CCCc3ccccc3)CC2)c2ccc(F)cc2)cc1: inactive
CNCC(O)c1ccc(O)cc1 (stereo not given): inactive

Request: Tell me Potency reported for COC[C@H]1OC(=O)c2coc3c2[C@@]1(C)C1=C(C3=O)C2CCC(=O)[C@@]2(C)C[C@H]1OC(C)=O (stereo not given in full)
Result: 4.69 µM (active)

---

- measurementProtocol: Quantitative High-Throughput drug screen in 47 multiple myeloma cell lines against the NCATS MIPE library collection: INA6_PLB cell viability assay (AID 1918965; also: nearly all actives have a fitted effect of over 55% in size; also: potency is read from the fitted curve at half-maximal effect)
- runParameters: INA6 myeloma viability, CellTiter-Glo ATP luminescence, 48 h; series mostly up to 45.8 µM
Results filed as inconclusive are left out. Activity calls are given as the source filed them. Calls come from the whole dose curve; as a rule, active = well fitted cell-killing curve with a large enough effect; inconclusive = small, poorly fitted or top-dose-only effect, or effect the other way; inactive = no such curve, though single readings can be large or run the other way.
assayEndpoint: Potency

C[C@@H]1[C@@H](CC(C[C@H]2O[C@@H]3O[C@]4(C)CC[C@@H]5[C@H](C)CC[C@@H]([C@H]2C)[C@@]35OO4)C[S+](=O)([O-])c2ccc(COC(=O)N(C)C)cc2)O[C@@H]2O[C@]3(C)CC[C@H]4[C@H](C)CC[C@@H]1[C@@]24OO3 (some centres not stated): 235 nM (active)
O=C1CC[C@@]2(O)[C@H]3Cc4ccc(O)c5c4[C@@]2(CCN3CC2CC2)[C@H]1O5: 8330 nM (active)
Cn1c(CCCC(=O)O)nc2cc(N(CCCl)CCCl)ccc21: 18700 nM (active)
Cc1cccc(C)c1NC(=O)CN1CCCC1=O: inactive

Request: Tell me Potency reported for N[C@@H](Cc1ccc(N(CCCl)CCCl)cc1)C(=O)O
Result: 1320 nM (active)

Request: Tell me Potency reported for Cc1sc2c(c1C)C(c1ccc(Cl)cc1)=N[C@@H](CC(=O)OC(C)(C)C)c1nnc(C)n1-2
Result: 29.6 nM (active)

Request: Tell me Potency reported for COc1ccc2c(c1OC)CN1CCc3cc4c(cc3C1C2)OCO4 (configuration not stated)
Result: 18700 nM (active)

Request: Tell me Potency reported for CN(C)CCN(C)CCc1ccc(Cl)c(Cl)c1
Result: inactive

Request: Tell me Potency reported for Fc1ccc(C(OCCN2CCN(CCCc3ccccc3)CC2)c2ccc(F)cc2)cc1
Result: 13200 nM (active)

Request: Tell me Potency reported for CNC(=O)N1N=C(c2ccc(N)cc2)c2cc3c(cc2CC1C)OCO3 (configuration not stated)
Result: 1180 nM (active)

Request: Tell me Potency reported for CNCC(O)c1ccc(O)cc1 (configuration not stated)
Result: inactive

Request: Tell me Potency reported for C[C@@H]1[C@@H](C(=O)C[C@H]2O[C@@H]3O[C@]4(C)CC[C@@H]5[C@H](C)CC[C@@H]([C@H]2C)[C@@]35OO4)O[C@@H]2O[C@]3(C)CC[C@H]4[C@H](C)CC[C@@H]1[C@@]24OO3
Result: 264 nM (active)

---

- System: CP305
- measurementProtocol: qHTS profiling for inhibitors of Plasmodium falciparum proliferation (AID 504749); also: nearly all actives have a fitted effect of over 60% in size
- runParameters: P. falciparum in erythrocytes, SYBR Green DNA, 72 h; series mostly up to 28.7 µM
Results filed as inconclusive are left out. The source made the active and inactive calls. Calls come from the whole dose curve; as a rule, active = well fitted inhibition curve with a large enough effect; inconclusive = small, poorly fitted or top-dose-only effect; inactive = flat fitted curve, though single readings scatter.
Pick from active, inactive when you respond.

A selection of reference data follows.
Nc1ccncc1: inactive
CC[N+](CC)(CC)CC: inactive
CN1CCN(C(=O)O[C@H]2c3nccnc3C(=O)N2c2ccc(Cl)cn2)CC1: inactive

Request: What is the recorded call for this compound in the test? C=C(C)[C@H]1Cc2c(ccc3c2O[C@@H]2COc4cc(OC)c(OC)cc4[C@@H]2C3=O)O1
Result: inactive

Request: What is the recorded call for this compound in the test? CCOC(=O)C1(c2ccccc2)CCN(CCC(C#N)(c2ccccc2)c2ccccc2)CC1
Result: active

Request: What is the recorded call for this compound in the test? NCC1(CC(=O)O)CCCCC1
Result: inactive

Request: What is the recorded call for this compound in the test? CN(C)CCc1ccc(O)cc1
Result: inactive
